Measured Kd by item
Molecular target: T1, EsCas13d, nuclease-dead (Eubacterium siraeum, UniProt B0MS50, R295A;H300A;R849A;H854A)
T1 sequence: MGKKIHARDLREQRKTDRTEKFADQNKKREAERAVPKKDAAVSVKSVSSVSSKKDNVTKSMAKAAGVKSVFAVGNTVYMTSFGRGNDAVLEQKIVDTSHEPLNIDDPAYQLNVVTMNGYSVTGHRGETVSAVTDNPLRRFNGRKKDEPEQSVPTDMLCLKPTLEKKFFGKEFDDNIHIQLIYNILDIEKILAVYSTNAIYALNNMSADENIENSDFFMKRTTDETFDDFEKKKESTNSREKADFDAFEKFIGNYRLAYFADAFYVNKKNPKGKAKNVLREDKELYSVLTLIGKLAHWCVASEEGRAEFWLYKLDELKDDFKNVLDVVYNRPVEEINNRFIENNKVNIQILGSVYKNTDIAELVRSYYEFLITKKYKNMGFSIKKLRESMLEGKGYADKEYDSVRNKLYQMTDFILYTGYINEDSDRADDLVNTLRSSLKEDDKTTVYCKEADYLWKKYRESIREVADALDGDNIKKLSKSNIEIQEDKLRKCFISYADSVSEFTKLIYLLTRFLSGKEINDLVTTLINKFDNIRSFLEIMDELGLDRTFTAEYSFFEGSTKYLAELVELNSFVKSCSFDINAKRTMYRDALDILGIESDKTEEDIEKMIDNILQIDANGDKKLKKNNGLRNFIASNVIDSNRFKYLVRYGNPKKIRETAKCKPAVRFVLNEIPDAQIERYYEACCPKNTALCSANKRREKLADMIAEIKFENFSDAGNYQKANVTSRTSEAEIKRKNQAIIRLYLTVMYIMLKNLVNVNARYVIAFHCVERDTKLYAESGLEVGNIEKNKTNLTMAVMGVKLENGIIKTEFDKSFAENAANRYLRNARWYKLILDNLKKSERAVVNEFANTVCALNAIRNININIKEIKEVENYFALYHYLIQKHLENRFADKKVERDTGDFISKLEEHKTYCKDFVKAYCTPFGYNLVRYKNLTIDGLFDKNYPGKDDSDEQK
Assay: crRNA (strand 1, pre-loaded); Mg2+; 40 mM Tris-HCl pH 7.5, 150 mM NaCl, 6 mM MgCl2, 1 mM DTT, 0.1% Tween-20, 0.2 mg/ml BSA; 25 C; 10 min per concentration, then washed
Details: tags: His6-TwinStrep-SUMO cleaved; N-terminal SNAP kept (SNAP-Surface 488); label: 3' end held by stalled T7 RNA polymerase
observed property: Kd (nM)

binder="target 1 MT 5'PFS GUA 3'PFS GUC (mixed) RNA 1: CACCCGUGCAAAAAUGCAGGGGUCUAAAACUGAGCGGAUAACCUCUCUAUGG RNA 2: GGGAAUGGAUCCACAUCUACGAAUUCGUACCAUAGAGAGGUUAUCCGCUCAGUCAGAUCGGAAGAGCACACGU" endpoint_value=9.35
binder="target 1 C6G,U19G (mixed) RNA 1: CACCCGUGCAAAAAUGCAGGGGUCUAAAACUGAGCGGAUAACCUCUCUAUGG RNA 2: GGGAAUGGAUCCACAUCUACGAAUUCGUACCAGAGAGAGGUUAUCGGCUCACCGAGAUCGGAAGAGCACACGU" endpoint_value=42
binder="target 2 MT 5'PFS GCU 3'PFS CUG (mixed) RNA 1: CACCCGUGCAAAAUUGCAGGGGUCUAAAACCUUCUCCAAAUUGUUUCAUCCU RNA 2: GGGAAUGGAUCCACAUCUACGAAUUCGCUAGGAUGAAACAAUUUGGAGAAGCUGAGAUCGGAAGAGCACACGU" endpoint_value=30
binder="target 2 MT 5'PFS GCU 3'PFS CGG (mixed) RNA 1: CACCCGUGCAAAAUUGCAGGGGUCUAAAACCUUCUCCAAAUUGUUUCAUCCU RNA 2: GGGAAUGGAUCCACAUCUACGAAUUCGCUAGGAUGAAACAAUUUGGAGAAGCGGAGAUCGGAAGAGCACACGU" endpoint_value=19
binder="target 1 MT 5'PFS UUG 3'PFS UAG (mixed) RNA 1: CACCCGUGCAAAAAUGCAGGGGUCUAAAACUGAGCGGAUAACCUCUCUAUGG RNA 2: GGGAAUGGAUCCACAUCUACGAAUUCUUGCCAUAGAGAGGUUAUCCGCUCAUAGAGAUCGGAAGAGCACACGU" endpoint_value=47.5
binder="target 1 insC 3' of 5,insA 3' of 5 (mixed) RNA 1: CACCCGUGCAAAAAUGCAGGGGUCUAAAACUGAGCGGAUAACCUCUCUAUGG RNA 2: GGGAAUGGAUCCACAUCUACGAAUUCGUACCAUAGAGAGGUUAUCCGCACUCACCGAGAUCGGAAGAGCACACGU" endpoint_value=11.5
binder="target 1 C4G,A16G (mixed) RNA 1: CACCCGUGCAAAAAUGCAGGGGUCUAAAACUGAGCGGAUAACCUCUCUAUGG RNA 2: GGGAAUGGAUCCACAUCUACGAAUUCGUACCAUAGGGAGGUUAUCCGGUCACCGAGAUCGGAAGAGCACACGU" endpoint_value=16.3
binder="target 1 MT 5'PFS CCG 3'PFS CUC (mixed) RNA 1: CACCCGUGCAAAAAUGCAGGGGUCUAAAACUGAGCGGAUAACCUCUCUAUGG RNA 2: GGGAAUGGAUCCACAUCUACGAAUUCCCGCCAUAGAGAGGUUAUCCGCUCACUCAGAUCGGAAGAGCACACGU" endpoint_value=3.15
binder="target 3 del1,del15 (mixed) RNA 1: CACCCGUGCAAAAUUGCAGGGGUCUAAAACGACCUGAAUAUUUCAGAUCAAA RNA 2: GGGAAUGGAUCCACAUCUACGAAUUCGUUUUUGAUCGAAAUAUUCAGGUUGCAGAUCGGAAGAGCACACGU" endpoint_value=62
binder="target 1 insU 3' of 22,insU 3' of 15 (mixed) RNA 1: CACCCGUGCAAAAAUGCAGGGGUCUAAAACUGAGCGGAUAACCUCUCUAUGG RNA 2: GGGAAUGGAUCCACAUCUACGAAUUCGUACUCAUAGAGUAGGUUAUCCGCUCACCGAGAUCGGAAGAGCACACGU" endpoint_value=34
binder="target 1 insC 3' of 8,insA 3' of 6 (mixed) RNA 1: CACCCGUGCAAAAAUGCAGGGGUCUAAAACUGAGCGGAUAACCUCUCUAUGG RNA 2: GGGAAUGGAUCCACAUCUACGAAUUCGUACCAUAGAGAGGUUAUCCCAGCUCACCGAGAUCGGAAGAGCACACGU" endpoint_value=17.7
binder="target 1 insC 3' of 17,insU 3' of 1 (mixed) RNA 1: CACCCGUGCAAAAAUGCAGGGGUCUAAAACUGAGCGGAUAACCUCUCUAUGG RNA 2: GGGAAUGGAUCCACAUCUACGAAUUCGUACCAUAGCAGAGGUUAUCCGCUCAUCCGAGAUCGGAAGAGCACACGU" endpoint_value=66
binder="target 2 MT 5'PFS AUU 3'PFS UUA (mixed) RNA 1: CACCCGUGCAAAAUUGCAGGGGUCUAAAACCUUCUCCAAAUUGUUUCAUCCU RNA 2: GGGAAUGGAUCCACAUCUACGAAUUCAUUAGGAUGAAACAAUUUGGAGAAGUUAAGAUCGGAAGAGCACACGU" endpoint_value=13.5
